- study target: PD-1/PD-L1 protein/protein interaction (recombinant human PD-L1 protein (19-238), recombinant human PD-1 protein (25-167)) (Homo sapiens)
- Construct: Recombinant human PD-L1 protein (19-238) with a His-tag at the C-terminus; purchased AcroBiosystems PD1-H5229 (PD-L1); PD1-H5257 (PD-1)
- Sequence (Q9NZQ7 19-238): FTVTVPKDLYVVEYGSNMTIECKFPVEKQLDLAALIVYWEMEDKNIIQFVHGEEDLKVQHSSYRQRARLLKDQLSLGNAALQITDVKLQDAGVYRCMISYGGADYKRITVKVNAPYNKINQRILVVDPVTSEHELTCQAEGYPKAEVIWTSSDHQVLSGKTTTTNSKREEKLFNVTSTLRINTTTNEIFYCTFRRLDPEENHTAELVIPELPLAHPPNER
- test: PD-1/PD-L1 Homogeneous Time-Resolved Fluorescence (HTRF) Binding Assay
- condition parameters: 25° C., PBS buffer pH 7.4, 40 minutes preincubation with inhibitors
pIC50: −log10 of the molar value.
endpoint label: pIC50

- smiles string: "Cc1c(NC(=O)c2nc3c(s2)CNCC3)cncc1-c1ccc2c(c1)OCCO2"
  endpoint label: "pIC50"
  data value: "5.00 to 6.30"
- smiles string: "COc1cccc(-c2cccc(NC(=O)c3nc4c(s3)CNCC4)c2Cl)c1F"
  endpoint label: "pIC50"
  data value: "≥ 7.00"
- smiles string: "N#Cc1c(NC(=O)c2cc3n(n2)CCNC3)cccc1-c1ccc2c(c1)OCCO2"
  endpoint label: "pIC50"
  data value: "6.30 to 7.00"

Problem: // lookup pIC50 for Cc1c(NC(=O)c2nc3c(s2)CNCC3)cccc1-c1cccc2c1cnn2C
Result: ≥ 7.00

Problem: So what does the record say about pIC50 for N#Cc1c(NC(=O)c2nc3c(s2)CNCC3)cccc1-c1ccccc1F ?
Result: ≥ 7.00

Problem: State the recorded pIC50 for this entry: Cn1c(C(=O)Nc2cccc(-c3cccc4c3cnn4C)c2C#N)nc2c1CCNC2
Result: 6.30 to 7.00
